Entry source: paper doi:10.1101/2025.06.05.658000

# TARGET_ENTITY: HLA-DR (DRA1*01:01 / DRB1*15:03), soluble knob-into-hole Fc heterodimer (human)
# PROTOCOL_SUMMARY: ELISA
REPORTED_METRIC: pKi
Give bare numbers, as −log10 of the molar value.

Answer with the recorded pKi of KPVSKMRMATPLLMQALPM [human CLIP peptide, unlabelled competitor] only. 7.95
